- assay.target: human androgen receptor (Homo sapiens, UniProt P10275)
- Construct: expressed in transfected cells; host or cells: CHO cells, cell line CHO-AR-pMMTV-LUC 1G12-A5-CA
- Sequence (P10275 whole entry): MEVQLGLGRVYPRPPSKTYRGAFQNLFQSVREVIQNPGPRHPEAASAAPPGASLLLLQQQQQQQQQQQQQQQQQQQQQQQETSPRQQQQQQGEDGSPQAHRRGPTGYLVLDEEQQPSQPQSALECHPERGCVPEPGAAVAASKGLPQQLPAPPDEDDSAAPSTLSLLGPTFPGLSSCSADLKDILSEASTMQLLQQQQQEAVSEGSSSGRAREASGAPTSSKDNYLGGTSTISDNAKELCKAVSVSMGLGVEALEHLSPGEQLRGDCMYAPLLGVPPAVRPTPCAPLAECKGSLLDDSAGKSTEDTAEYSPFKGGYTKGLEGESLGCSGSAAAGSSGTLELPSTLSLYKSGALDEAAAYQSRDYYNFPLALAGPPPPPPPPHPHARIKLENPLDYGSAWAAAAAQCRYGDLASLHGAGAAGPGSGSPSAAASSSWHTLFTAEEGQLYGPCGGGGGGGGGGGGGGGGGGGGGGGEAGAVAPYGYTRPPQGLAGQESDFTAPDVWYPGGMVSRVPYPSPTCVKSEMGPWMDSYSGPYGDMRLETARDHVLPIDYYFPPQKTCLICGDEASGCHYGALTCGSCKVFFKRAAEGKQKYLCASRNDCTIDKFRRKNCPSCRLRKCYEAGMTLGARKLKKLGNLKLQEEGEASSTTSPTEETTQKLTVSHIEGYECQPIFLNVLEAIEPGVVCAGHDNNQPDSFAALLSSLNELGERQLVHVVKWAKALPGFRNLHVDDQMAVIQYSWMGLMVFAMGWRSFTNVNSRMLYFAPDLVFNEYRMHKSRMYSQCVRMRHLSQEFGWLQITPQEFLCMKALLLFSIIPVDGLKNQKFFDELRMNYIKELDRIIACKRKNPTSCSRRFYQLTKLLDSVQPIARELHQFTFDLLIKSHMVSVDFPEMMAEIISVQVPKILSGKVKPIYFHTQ
- method: androgenic activity (EC50, potency, efficacy), transactivation bioassay in CHO-AR-pMMTV-LUC cells in the presence of 0.1 μmol/l onapristone (Table 5)
- Format: cell-based
- setup.conditions: maximal intrinsic activity; activity in the presence of 100 nM DHT set at 1.00; CHO-AR-pMMTV-LUC cells; 0.1 μmol/l onapristone; read-out: ago efficacy
Listed compounds paired with reported Emax

smiles.representation: NC(=O)c1ccc2c(Sc3ccccc3[N+](=O)[O-])cn(Cc3ccccn3)c2c1
Emax: 20 to 50%

smiles.representation: COc1ccc2c(Sc3ccccc3[N+](=O)[O-])cn(Cc3cc(F)c(F)c(F)c3)c2c1
Emax: > 80%

smiles.representation: CNC(=O)c1ccc2c(Sc3ccccc3[N+](=O)[O-])cn(Cc3cccnc3)c2c1
Emax: 20 to 50%

smiles.representation: COc1ccc2c(Sc3ccccc3[N+](=O)[O-])cn(Cc3ccncn3)c2c1
Emax: 50 to 80%

smiles.representation: O=[N+]([O-])c1ccccc1Sc1cn(Cc2cc(F)cc(F)c2)c2cc(NS(=O)(=O)c3ccsc3)ccc12
Emax: > 80%

smiles.representation: CCC(=O)Nc1ccc2c(Sc3ccccc3[N+](=O)[O-])cn(Cc3cccnc3)c2c1
Emax: 20 to 50%

smiles.representation: COc1ccc2c(Sc3ccccc3[N+](=O)[O-])cn(Cc3cc(F)cc(F)c3F)c2c1
Emax: > 80%

smiles.representation: CS(=O)(=O)Nc1ccc2c(Sc3ccccc3[N+](=O)[O-])cn(Cc3cc(F)cc(F)c3)c2c1
Emax: > 80%

smiles.representation: N#Cc1ccc2c(Sc3ccccc3[N+](=O)[O-])cn(Cc3cccnc3)c2c1
Emax: > 80%

smiles.representation: N#Cc1cccc(Cn2cc(Sc3ccccc3[N+](=O)[O-])c3ccc(C#N)cc32)c1
Emax: > 80%

smiles.representation: CC(=O)Nc1ccc2c(Sc3ccccc3[N+](=O)[O-])cn(Cc3cccnc3)c2c1
Emax: 50 to 80%

smiles.representation: COc1ccc2c(Sc3ccccc3[N+](=O)[O-])cn(Cc3cnccn3)c2c1
Emax: 50 to 80%

smiles.representation: N#Cc1ccc2c(Sc3ccccc3[N+](=O)[O-])cn(Cc3ccncc3)c2c1
Emax: 50 to 80%

smiles.representation: O=C(NC1CC1)c1ccc2c(Sc3ccccc3[N+](=O)[O-])cn(Cc3cccnc3)c2c1
Emax: > 80%

smiles.representation: COc1ccc2c(Sc3ccccc3[N+](=O)[O-])cn(Cc3ccc(Cl)nc3)c2c1
Emax: 20 to 50%

smiles.representation: CCNC(=O)c1ccc2c(Sc3ccccc3[N+](=O)[O-])cn(Cc3cccnc3)c2c1
Emax: 50 to 80%

smiles.representation: COc1ccc2c(Sc3ccccc3[N+](=O)[O-])cn(Cc3cncnc3)c2c1
Emax: 50 to 80%

These entries and their values trace back to patent US8124647B2.
